Taken from paper PMC11880807.

- System Under Test: T1, EXOG (EXOG-ΔN58) (human, UniProt Q9Y2C4 59-368)
- T1 sequence: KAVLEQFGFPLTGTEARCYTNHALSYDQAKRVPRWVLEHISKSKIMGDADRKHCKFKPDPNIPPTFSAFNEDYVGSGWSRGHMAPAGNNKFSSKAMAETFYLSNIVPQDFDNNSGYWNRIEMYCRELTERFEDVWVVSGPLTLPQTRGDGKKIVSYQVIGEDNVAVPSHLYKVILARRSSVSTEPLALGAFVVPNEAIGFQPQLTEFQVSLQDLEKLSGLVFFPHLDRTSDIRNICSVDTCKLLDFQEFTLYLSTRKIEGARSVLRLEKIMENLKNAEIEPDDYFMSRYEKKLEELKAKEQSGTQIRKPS
- Assay: MST
Quantity Measured: Kd (nM)
Express it in nM; write the number only.

q: What value of Kd has been recorded for this entry: AGTTCGTTATCGTCGC (ssDNA) [ssDNA 16-mer O10]
a: 25.1
